What pIC50 was measured for each of the following?
tested on: Plasmodium falciparum; test: Antimalarial activity against chloroquine sensitive Plasmodium falciparum 3D7 assessed as parasite growth inhibition incubated for 72 hrs by DAPI staining method; type: functional, organism-based; conditions: 3D7, 72 h
Here pIC50 is given on a logarithmic scale as minus log10 of the concentration in mol/L.

May I ask what pIC50 has been recorded for COC(=O)c1cc2c(c(OC)c1OC)[C@H](C)C[C@@H](OC(=O)Nc1ccc(F)cc1)[C@H]2[C@@H](C)CCC=C(C)C ? 5.06

Data request, read-out pIC50, for COC(=O)c1cc2c(c(OC)c1OC)[C@H](C)C[C@@H](OC(=O)Nc1ccc(Cl)cc1)[C@H]2[C@@H](C)CCC=C(C)C 4.93

Find the recorded pIC50 belonging to COC(=O)c1cc2c(c(OC)c1OC)[C@H](C)C[C@@H](OC(=O)Nc1ccc([N+](=O)[O-])cc1)[C@H]2[C@@H](C)CCC=C(C)C and report it. 5.12

What value of measured pIC50 is listed for COC(=O)c1cc2c(c(OC)c1OC)[C@H](C)C[C@@H](OC(=O)Nc1cccc(Cl)c1)[C@H]2[C@@H](C)CCC=C(C)C ? 5.04

Reported pIC50 for COC(=O)c1cc2c(c(OC)c1OC)[C@H](C)C[C@@H](OC(=O)Nc1ccc(OC)cc1)[C@H]2[C@@H](C)CCC=C(C)C : what is it? 5.03

Entry COc1ccc(C[C@H](N)C(=O)N[C@H]2[C@@H](O)[C@H](n3cnc4c(N(C)C)ncnc43)O[C@@H]2CO)cc1 has what pIC50? 7.37

Look at this compound and give its reported pIC50. COC(=O)c1cc2c(c(OC)c1OC)[C@H](C)C[C@@H](OC(=O)Nc1ccccc1)[C@H]2[C@@H](C)CCC=C(C)C 4.94

What measured pIC50 goes with COC(=O)c1cc2c(c(OC)c1OC)[C@H](C)C[C@@H](OC(=O)Nc1ccc(C)cc1)[C@H]2[C@@H](C)CCC=C(C)C ? 4.91

Reported pIC50, compound COC(=O)c1cc2c(c(OC)c1OC)[C@H](C)C[C@@H](OC(=O)Nc1cc(C(F)(F)F)cc(C(F)(F)F)c1)[C@H]2[C@@H](C)CCC=C(C)C : ____ 5.34

These measurements were taken from ChEMBL document CHEMBL5252581.
